# TARGET_SYSTEM: T1, CRBN, Q96SW2;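 further: pooled lentiviral library of zinc finger degron-EGFP fusions in mCherry-positive Jurkat cells, FACS-sorted after compound exposure, with degron abundance counted by next-generation sequencing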
# T1 chain: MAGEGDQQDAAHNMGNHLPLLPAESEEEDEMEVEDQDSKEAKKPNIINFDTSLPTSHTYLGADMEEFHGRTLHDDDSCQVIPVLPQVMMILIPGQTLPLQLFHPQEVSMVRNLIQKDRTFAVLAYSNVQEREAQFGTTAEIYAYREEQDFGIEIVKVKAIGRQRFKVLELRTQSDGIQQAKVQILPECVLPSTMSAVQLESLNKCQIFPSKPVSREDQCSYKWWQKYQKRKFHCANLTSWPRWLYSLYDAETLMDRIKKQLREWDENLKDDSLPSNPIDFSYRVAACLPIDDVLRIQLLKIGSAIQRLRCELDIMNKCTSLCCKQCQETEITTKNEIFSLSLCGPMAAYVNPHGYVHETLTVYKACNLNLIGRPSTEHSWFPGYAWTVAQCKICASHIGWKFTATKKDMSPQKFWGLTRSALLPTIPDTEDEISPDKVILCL
# ASSAY_REMARKS: log2 fold change of degron read counts, EGFP-low vs EGFP+ sorted cells (limma voom), compound-induced degradation; higher = more compound-induced degradation of the degron-EGFP fusion; degrons are variants of IKZF1/3 zinc finger 2; compound dose not given here
# CONDITIONS_USED: Jurkat; 18 h; compound: compound 22 (5-morpholino-thalidomide)
The full ranking holds about 8,300 sequences; the median of “log2 fold change of degron read counts, EGFP-low vs EGFP+ sorted cells (limma voom), compound-induced degradation” is about -1.1, and the highest 2% start at about 3.2. Only a selection was taken, and the highest values are over-represented in it overall.
Please note: true applies when log2 fold change of degron read counts is -0.9 or greater, and false applies otherwise.

For this sequence, is measured log2 fold change of degron read counts -0.9 or higher? FKCDICGAEFTQKGNLLRHIKL [46F_47K_49D_50I_52G_53A_54E_55F_67L_, Q9UKT9]
false

Hi team, for FHCEICGAKFTQKGNLLRHIKL [46F_47H_49E_50I_52G_53A_54K_55F_67L_, Q9UKT9] , is the recorded log2 fold change of degron read counts at or above -0.9?
true

Form field: log2 fold change of degron read counts at least -0.9? Entry: LYCNQCGFLCTQKGNLLRHIKL [46L_47Y_49N_50Q_52G_53F_54L_55C_67L_, Q9UKT9]
false

Just for reference, the supplement of paper PMC12645437 is where these values come from.
